Biological target: UniProt P31645
Sequence (P31645 whole entry, species assumed): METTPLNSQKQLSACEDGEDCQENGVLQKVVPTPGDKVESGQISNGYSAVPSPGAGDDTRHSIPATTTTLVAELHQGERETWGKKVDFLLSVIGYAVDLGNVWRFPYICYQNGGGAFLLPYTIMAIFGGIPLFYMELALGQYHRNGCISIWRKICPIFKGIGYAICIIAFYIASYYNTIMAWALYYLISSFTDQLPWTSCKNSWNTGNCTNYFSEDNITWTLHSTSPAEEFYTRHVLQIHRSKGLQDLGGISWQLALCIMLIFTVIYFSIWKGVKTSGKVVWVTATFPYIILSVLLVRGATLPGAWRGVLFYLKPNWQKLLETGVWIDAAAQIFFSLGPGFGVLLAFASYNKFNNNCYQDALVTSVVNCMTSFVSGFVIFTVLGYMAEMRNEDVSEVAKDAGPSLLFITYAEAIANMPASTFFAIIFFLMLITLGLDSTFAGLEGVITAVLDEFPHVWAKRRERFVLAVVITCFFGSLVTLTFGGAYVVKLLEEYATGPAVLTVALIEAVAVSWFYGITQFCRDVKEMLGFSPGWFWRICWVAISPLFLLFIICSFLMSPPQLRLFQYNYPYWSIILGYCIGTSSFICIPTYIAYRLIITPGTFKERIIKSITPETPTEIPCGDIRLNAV
Test: Off-target binding, SERT
Details: read-out: Ki at SERT
Excerpt: The results are set forth below.
REPORTED_METRIC: Ki

1) CNC(=O)[C@@]12C[C@@H]1[C@@H](n1cnc3c(NC)nc(C#Cc4cnccn4)nc31)[C@H](O)[C@@H]2O [Compound 7] | > 10 µM

---

Experiment: Bioavailability / plasma pharmacokinetics
Format: in vivo
Details: rat, po, p.o. 10 mg/kg, male SD rats, read-out: Cmax ng/ml
REPORTED_METRIC: Cmax

1) CNC(=O)[C@@]12C[C@@H]1[C@@H](n1cnc3c(NC)nc(C#Cc4ccc(Cl)s4)nc31)[C@H](O)[C@@H]2O | 326 ng/mL
